Study the reported IC50 values for Thymidylate synthase (Mus musculus) given below; they originate from different publications.
// classify: if (IC50 < 1000 nM) TRUE else FALSE

Cc1nc(O)c2cc(COc3ccc(C(=O)N[C@@H](CCC(=O)O)C(=O)O)cc3)ccc2n1: FALSE
Cc1nc(O)c2cc(N(C)C(C)c3ccc(C(=O)N[C@@H](CCC(=O)O)C(=O)O)cc3)ccc2n1 (some centres not stated): FALSE
Cc1nc(O)c2cc(CNc3ccc4c(c3)CN([C@@H](CCC(=O)O)C(=O)O)C4=O)ccc2n1: FALSE

Input line: # TODO verify IC50 < 1000 nM strictly for this compound: Cc1nc(O)c2cc(CN(C)c3ccc4c(c3)CN([C@@H](CCC(=O)O)C(=O)O)C4=O)ccc2n1
Output line: TRUE

Input line: # TODO verify IC50 < 1000 nM strictly for this compound: CCN(Cc1ccc2nc(C)[nH]c(=O)c2c1)c1ccc(C(=O)N[C@@H](CCC(=O)O)C(=O)O)cc1
Output line: TRUE

Input line: # TODO verify IC50 < 1000 nM strictly for this compound: C=CCN(Cc1ccc2nc(C)nc(O)c2c1)c1cnc(C(=O)N[C@H](CCC(=O)O)C(=O)O)s1
Output line: FALSE

Input line: # TODO verify IC50 < 1000 nM strictly for this compound: C#CCN(Cc1ccc2nc(OC)[nH]c(=O)c2c1)c1ccc(C(=O)N[C@@H](CCC(=O)O)C(=O)O)c(F)c1
Output line: TRUE

---

Study the reported pIC50 values for Thymidylate synthase (Mus musculus) given below; they originate from different publications.
Scale: pIC50 equals -log10([C]), with [C] in mol/L.

Cc1nc(O)c2cc(NCc3ccc(C(=O)N[C@@H](CCC(=O)O)C(=O)O)cn3)ccc2n1: 4.78
CCN(Cc1ccc2nc(C)nc(O)c2c1)c1ccc(C(=O)N[C@H](CCC(=O)O)C(=O)O)s1: 6.24
Cc1nc2ccc(CN(C)c3ccc(C(=O)N[C@@H](CCC(=O)O)C(=O)O)nc3)cc2c(=O)[nH]1: 6.46

Input line: pIC50 of Cc1nc(O)c2cc(CN(CCO)c3cnc(C(=O)N[C@H](CCC(=O)O)C(=O)O)s3)ccc2n1 on Thymidylate synthase (Mus musculus)?
Output line: 6.38

Input line: pIC50 of CCN(Cc1ccc2nc(C)[nH]c(=O)c2c1)c1ccc(C(=O)N[C@@H](CCC(=O)O)C(=O)O)cc1F on Thymidylate synthase (Mus musculus)?
Output line: 6.17

Input line: pIC50 of C#CCN(Cc1ccc2nc[nH]c(=O)c2c1)c1ccc(C(=O)N[C@@H](CCC(=O)O)C(=O)O)c(F)c1 on Thymidylate synthase (Mus musculus)?
Output line: 7.24

Input line: pIC50 of CCN(Cc1ccc(C(=O)N[C@@H](CCC(=O)O)C(=O)O)s1)c1ccc2nc(C)nc(O)c2c1 on Thymidylate synthase (Mus musculus)?
Output line: 5.07

Input line: pIC50 of Cc1nc(O)c2cc(NCc3ccc(C(=O)N[C@@H](CCC(=O)O)C(=O)O)cc3)ccc2n1 on Thymidylate synthase (Mus musculus)?
Output line: 5.08

---

Study the reported pIC50 values for UniProtKB P07607 given below; they originate from different publications.
pIC50: −log10 of the molar value.
# cutoff 6 applies to pIC50; >= gives condition met, < gives condition not met

Please review the following examples before continuing.
Cc1nc2ccc(CNc3ccc(C(=O)N[C@@H](CCC(=O)O)C(=O)O)c(F)c3)cc2c(=O)[nH]1: condition not met
Cc1nc(O)c2cc(NCc3ccc(C(=O)N[C@@H](CCC(=O)O)C(=O)O)cc3F)ccc2n1: condition not met
Cc1nc2ccc(CN(CC#N)c3ccc(C(=O)N[C@@H](CCC(=O)O)C(=O)O)c(F)c3)cc2c(=O)[nH]1: condition met
Cc1nc2ccc(CN(CCO)c3ccc(C(=O)N[C@@H](CCC(=O)O)C(=O)O)cc3)cc2c(=O)[nH]1: condition met
CCN(Cc1ccc2nc(C)[nH]c(=O)c2c1)c1ccc(C(=O)N[C@@H](CCC(=O)O)C(=O)O)c(C)c1: condition met
C=CCN(Cc1ccc(C(=O)N[C@@H](CCC(=O)O)C(=O)O)s1)c1ccc2nc(C)nc(O)c2c1: condition not met
Cc1nc(O)c2cc(CN(CCF)c3cnc(C(=O)N[C@H](CCC(=O)O)C(=O)O)s3)ccc2n1: condition met
Cc1nc2ccc(CN(C)c3ccc(C(=O)N[C@@H](CCC(=O)O)C(=O)O)cn3)cc2c(=O)[nH]1: condition not met
C#CCN(Cc1ccc2nc(C)nc(O)c2c1)c1ccc(C(=O)N[C@H](CCC(=O)O)C(=O)O)s1: condition met
Cc1nc2ccc(CN(CCF)c3ccc(C(=O)N[C@@H](CCC(=O)O)C(=O)O)nc3)cc2c(=O)[nH]1: condition met

Input line: Exam item: decide whether the reported pIC50 for O=C(O)CCC(NC(=O)c1ccc(CNc2ccc3ncnc(O)c3c2)cc1)C(=O)O (configuration not stated) is at least 6.
Output line: condition not met

Input line: Exam item: decide whether the reported pIC50 for Cc1nc(O)c2cc(Sc3ccc(C(=O)N[C@@H](CCC(=O)O)C(=O)O)cc3)ccc2n1 is at least 6.
Output line: condition not met

Input line: Exam item: decide whether the reported pIC50 for C=CCN(Cc1ccc2nc(C)[nH]c(=O)c2c1)c1ccc(C(=O)N[C@@H](CCC(=O)O)C(=O)O)c(F)c1 is at least 6.
Output line: condition met

Input line: Exam item: decide whether the reported pIC50 for Cc1nc2ccc(CN(CCF)c3ccc(C(=O)N[C@@H](CCC(=O)O)C(=O)O)cc3)cc2c(=O)[nH]1 is at least 6.
Output line: condition met
